measuredTarget: UniProt P34972
Sequence (P34972 whole entry): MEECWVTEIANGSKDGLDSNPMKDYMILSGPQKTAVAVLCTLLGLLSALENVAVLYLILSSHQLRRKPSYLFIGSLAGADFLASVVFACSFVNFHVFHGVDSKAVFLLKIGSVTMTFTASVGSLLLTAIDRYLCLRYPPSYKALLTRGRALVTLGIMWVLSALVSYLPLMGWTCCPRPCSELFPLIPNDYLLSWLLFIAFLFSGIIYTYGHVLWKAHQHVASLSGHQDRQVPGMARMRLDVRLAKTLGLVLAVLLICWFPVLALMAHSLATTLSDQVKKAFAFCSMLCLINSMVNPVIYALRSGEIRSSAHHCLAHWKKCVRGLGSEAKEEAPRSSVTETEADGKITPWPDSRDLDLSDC
protocolSummary: Inverse agonist activity at human CB2 receptor expressed in HEK293 EBNA cell membranes after 30 mins by [35S]-GTPgammaS binding assay
metricName: IC50
Write the numeric value and append its unit.

Some entries whose results are on file:
[
  {
    "smilesNotation": "Cc1cc(-c2cc(C(=O)N[C@H]3CC[C@@H](C)CC3)c(=O)n(Cc3ccc(F)cc3)n2)ccc1Cl",
    "IC50": "20.7 nM"
  },
  {
    "smilesNotation": "Cc1cc(-c2cc(C(=O)N[C@@H]3C(C)(C)[C@@H]4CC[C@@]3(C)C4)c(=O)n(Cc3ccc(F)cc3)n2)ccc1Cl",
    "IC50": "51.2 nM"
  },
  {
    "smilesNotation": "Cc1cc(-c2cc(C(=O)NC3CCCCC3)c(=O)n(Cc3ccc(F)cc3)n2)ccc1Cl",
    "IC50": "25.3 nM"
  }
]

C[C@H]1CC[C@@H](NC(=O)c2cc(-c3ccccc3)nn(Cc3ccc(F)cc3)c2=O)CC1 on UniProt P34972 gives IC50 = 35.2 nM
